Answer each item with its documented neutralization IC50.
studyTarget: Env of MuLV
assayNotes: cell-based or functional assay

Use these answered entries as a reference point.
binder	neutralization IC50
γ15κ11 (antibody, V domains shown) VH: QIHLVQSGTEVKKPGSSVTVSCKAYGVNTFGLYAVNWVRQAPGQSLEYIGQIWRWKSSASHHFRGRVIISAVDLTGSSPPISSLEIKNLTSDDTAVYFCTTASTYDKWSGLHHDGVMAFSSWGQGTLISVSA VL: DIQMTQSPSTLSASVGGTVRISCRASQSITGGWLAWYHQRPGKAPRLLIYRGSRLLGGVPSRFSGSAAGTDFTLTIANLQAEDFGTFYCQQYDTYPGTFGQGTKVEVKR	> 30 µg/mL
8ANC3044 (antibody, V domains shown) VH: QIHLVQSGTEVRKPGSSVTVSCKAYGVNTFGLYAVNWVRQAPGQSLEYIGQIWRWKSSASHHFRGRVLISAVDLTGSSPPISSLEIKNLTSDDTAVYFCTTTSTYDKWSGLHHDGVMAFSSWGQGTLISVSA VL: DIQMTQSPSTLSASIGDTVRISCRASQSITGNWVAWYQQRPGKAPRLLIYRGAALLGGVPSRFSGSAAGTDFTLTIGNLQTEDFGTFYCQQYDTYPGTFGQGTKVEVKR	> 30 µg/mL

Provide neutralization IC50 values for the following items, in order.
1. γ20κ19 (antibody, V domains shown) VH: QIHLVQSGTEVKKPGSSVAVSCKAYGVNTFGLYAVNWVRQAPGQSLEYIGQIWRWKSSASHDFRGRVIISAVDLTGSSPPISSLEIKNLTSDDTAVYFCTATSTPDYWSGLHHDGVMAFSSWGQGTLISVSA VL: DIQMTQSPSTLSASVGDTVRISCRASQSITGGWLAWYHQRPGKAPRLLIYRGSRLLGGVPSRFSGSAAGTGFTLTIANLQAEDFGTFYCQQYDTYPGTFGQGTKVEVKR
2. γ15κ3 (antibody, V domains shown) VH: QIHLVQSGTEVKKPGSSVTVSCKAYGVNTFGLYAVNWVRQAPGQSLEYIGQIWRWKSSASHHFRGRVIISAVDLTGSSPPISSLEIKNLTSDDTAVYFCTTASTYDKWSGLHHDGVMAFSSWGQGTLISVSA VL: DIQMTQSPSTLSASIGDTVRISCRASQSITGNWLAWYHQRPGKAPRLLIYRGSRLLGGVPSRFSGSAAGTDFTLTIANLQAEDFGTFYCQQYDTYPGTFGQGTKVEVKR
3. γ52κ18 (antibody, V domains shown) VH: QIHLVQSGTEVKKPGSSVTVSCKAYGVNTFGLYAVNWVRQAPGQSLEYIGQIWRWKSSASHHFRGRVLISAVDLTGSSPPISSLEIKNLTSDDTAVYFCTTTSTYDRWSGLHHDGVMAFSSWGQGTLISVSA VL: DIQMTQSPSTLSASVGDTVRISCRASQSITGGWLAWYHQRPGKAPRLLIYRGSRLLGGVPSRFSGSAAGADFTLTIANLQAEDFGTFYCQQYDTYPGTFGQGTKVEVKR

Completion:
1: > 15 µg/mL; 2: > 30 µg/mL; 3: > 15 µg/mL
